Listed compounds paired with reported kinase still bound, per cent of control
# targetSystem: CDC42BPB (human) (UniProt Q9Y5S2)
# Sequence (Q9Y5S2 whole entry, looked up): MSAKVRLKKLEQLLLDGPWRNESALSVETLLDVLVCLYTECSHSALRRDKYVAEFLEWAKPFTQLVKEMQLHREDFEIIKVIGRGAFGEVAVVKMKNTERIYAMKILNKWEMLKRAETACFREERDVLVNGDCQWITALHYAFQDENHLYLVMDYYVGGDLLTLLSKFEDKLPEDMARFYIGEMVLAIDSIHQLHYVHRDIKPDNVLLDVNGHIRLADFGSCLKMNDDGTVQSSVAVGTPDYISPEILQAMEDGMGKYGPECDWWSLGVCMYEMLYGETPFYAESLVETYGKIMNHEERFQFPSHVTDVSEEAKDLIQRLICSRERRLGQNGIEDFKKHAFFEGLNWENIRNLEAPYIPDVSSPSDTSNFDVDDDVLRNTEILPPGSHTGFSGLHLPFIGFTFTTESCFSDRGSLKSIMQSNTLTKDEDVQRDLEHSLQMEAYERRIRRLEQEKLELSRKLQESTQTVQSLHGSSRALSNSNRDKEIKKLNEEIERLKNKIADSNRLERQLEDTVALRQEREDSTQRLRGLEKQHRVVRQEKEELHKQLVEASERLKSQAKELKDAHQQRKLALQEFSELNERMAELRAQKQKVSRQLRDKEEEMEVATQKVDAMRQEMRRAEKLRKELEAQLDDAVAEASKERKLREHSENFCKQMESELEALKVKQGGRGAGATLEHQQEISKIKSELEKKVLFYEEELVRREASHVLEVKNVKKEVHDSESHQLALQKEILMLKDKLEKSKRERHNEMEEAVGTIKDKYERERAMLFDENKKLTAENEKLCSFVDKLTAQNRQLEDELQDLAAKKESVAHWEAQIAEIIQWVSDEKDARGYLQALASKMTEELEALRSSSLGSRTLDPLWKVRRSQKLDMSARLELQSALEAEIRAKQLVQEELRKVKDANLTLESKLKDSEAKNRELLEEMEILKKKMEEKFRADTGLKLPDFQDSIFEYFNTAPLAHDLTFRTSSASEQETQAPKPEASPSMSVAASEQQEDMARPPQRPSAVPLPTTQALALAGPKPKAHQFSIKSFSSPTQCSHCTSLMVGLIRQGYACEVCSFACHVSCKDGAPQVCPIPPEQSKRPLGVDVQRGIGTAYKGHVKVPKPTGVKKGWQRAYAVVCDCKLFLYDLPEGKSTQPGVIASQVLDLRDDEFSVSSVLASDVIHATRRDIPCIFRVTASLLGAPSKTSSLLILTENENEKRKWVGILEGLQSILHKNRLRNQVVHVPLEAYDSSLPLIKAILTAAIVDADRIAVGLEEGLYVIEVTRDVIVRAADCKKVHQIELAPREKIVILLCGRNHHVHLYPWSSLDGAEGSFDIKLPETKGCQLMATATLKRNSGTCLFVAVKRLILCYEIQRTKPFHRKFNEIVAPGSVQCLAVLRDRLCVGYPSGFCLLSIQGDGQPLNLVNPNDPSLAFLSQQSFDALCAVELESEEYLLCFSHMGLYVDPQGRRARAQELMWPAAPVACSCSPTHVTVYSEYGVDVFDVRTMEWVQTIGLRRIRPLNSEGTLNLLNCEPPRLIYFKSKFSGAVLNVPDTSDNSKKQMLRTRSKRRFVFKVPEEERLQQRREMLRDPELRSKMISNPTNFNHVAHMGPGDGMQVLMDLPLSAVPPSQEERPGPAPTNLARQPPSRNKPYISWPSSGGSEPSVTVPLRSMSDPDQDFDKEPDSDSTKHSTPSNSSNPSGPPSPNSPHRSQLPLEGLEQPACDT
# procedureSummary: KINOMEscan competition binding
# conditionLabel: compound 10.0 µM

[
  {
    "compound": "N#C/C(=C1/Nc2ccccc2S1)c1ccnc(NCCc2cccnc2)n1",
    "targetSystem": "CDC42BPB (human) (UniProt Q9Y5S2)",
    "kinase still bound, per cent of control / %": 81
  },
  {
    "compound": "COc1cc2c(Nc3ccc(NC(=O)c4ccccc4)cc3)ncnc2cc1OCCCN1CCOCC1",
    "targetSystem": "CDC42BPB (human) (UniProt Q9Y5S2)",
    "kinase still bound, per cent of control / %": 100
  },
  {
    "compound": "CNC(=O)Nc1ccc(-c2nc(N3CC4CCC(C3)O4)c3cnn(C4CCC5(CC4)OCCO5)c3n2)cc1",
    "targetSystem": "CDC42BPB (human) (UniProt Q9Y5S2)",
    "kinase still bound, per cent of control / %": 100
  },
  {
    "compound": "COc1cc(C)c(Sc2cnc(NC(=O)c3ccc(CNC(C)C(C)C)cc3)s2)cc1C(=O)N1CCN(C(C)=O)CC1 (centres undefined)",
    "targetSystem": "CDC42BPB (human) (UniProt Q9Y5S2)",
    "kinase still bound, per cent of control / %": 100
  },
  {
    "compound": "N#Cc1cc(-c2ccnc(Nc3ccc(-n4cnc(-c5cccnc5)n4)cc3)n2)cc(N2CCOCC2)c1",
    "targetSystem": "CDC42BPB (human) (UniProt Q9Y5S2)",
    "kinase still bound, per cent of control / %": 61
  },
  {
    "compound": "CC(=O)c1c(C)c2cnc(Nc3ccc(N4CCNCC4)cn3)nc2n(C2CCCC2)c1=O",
    "targetSystem": "CDC42BPB (human) (UniProt Q9Y5S2)",
    "kinase still bound, per cent of control / %": 91
  },
  {
    "compound": "COc1cc(N2CCC(C(N)=O)CC2)ccc1Nc1nc(N)c(Cl)c(Nc2ccccc2S(=O)(=O)C(C)C)n1",
    "targetSystem": "CDC42BPB (human) (UniProt Q9Y5S2)",
    "kinase still bound, per cent of control / %": 100
  },
  {
    "compound": "CCOc1cc(N2CCC(O)CC2)ccc1Nc1ncc2c(n1)N(C)c1ccccc1C(=O)N2C",
    "targetSystem": "CDC42BPB (human) (UniProt Q9Y5S2)",
    "kinase still bound, per cent of control / %": 100
  },
  {
    "compound": "CCc1nc(-c2cccc(C)c2)c(-c2ccnc(NC(=O)c3ccccc3)c2)s1",
    "targetSystem": "CDC42BPB (human) (UniProt Q9Y5S2)",
    "kinase still bound, per cent of control / %": 63
  }
]
